These measurements were taken from PubChem BioAssay AID256.

Each entry below carries its reported T/C.
Tested on: CD2F1 mice, L1210 leukemia ip, survival T/C
Assay: NCI In Vivo Anticancer Drug Screen. Data for tumor model L1210 Leukemia (intraperitoneal) in CD2F1 (CDF1) mice
Conditions: endpoint: mean survival time; dose: 50.0 mg/kg/injection; schedule: Q01DX009 (ip); vehicle: saline with Tween-80; higher = longer survival
Toxic doses and inconclusive results are not listed.

Data request, read-out T/C, for O=Cc1c(O)c2ccccc2[nH]c1=O 112 % of control

Query: T/C; subject: C=C(C)[C@@H]1CCc2c(O)c(O)c(=O)cc(C)c2C1 106 % of control

---

System: CD2F1 mice, L1210 leukemia ip, survival T/C
Assay: NCI In Vivo Anticancer Drug Screen. Data for tumor model L1210 Leukemia (intraperitoneal) in CD2F1 (CDF1) mice
Conditions: endpoint: mean survival time; dose: 200.0 mg/kg/injection; schedule: Q04DX002 (ip); vehicle: saline with Tween-80; higher = longer survival
Toxic doses and inconclusive results are not listed.
recorded.metric: T/C

Tell me the measured T/C of Cc1cccc(C)c1NC(=O)/C=C/c1ccccc1 , please. 90 % of control

If you can, please state the reported T/C value of COc1ccc([N+](=O)[O-])cc1NC(=O)Nc1cccc(Cl)c1 . 97 % of control

# T/C lookup, item Oc1ccccc1C=NCC1CCCC[N-]1.Oc1ccccc1C=NCC1CCCC[N-]1.[Ni+2] (configuration not stated) 101 % of control

---

Tested on: CD2F1 mice, L1210 leukemia ip, survival T/C
Experiment: NCI In Vivo Anticancer Drug Screen. Data for tumor model L1210 Leukemia (intraperitoneal) in CD2F1 (CDF1) mice
Conditions: endpoint: mean survival time; dose: 200.0 mg/kg/injection; schedule: Q01DX001 (ip); vehicle: Klucel (hydroxypropylcellulose) (HPC); higher = longer survival
Toxic doses and inconclusive results are not listed.
recorded.metric: T/C

A selection of reference data follows.
[
  {
    "molecule": "O=C(N/N=C/c1ccccc1O)c1ccccc1",
    "target.under.test": "CD2F1 mice, L1210 leukemia ip, survival T/C",
    "T/C": "105 % of control"
  },
  {
    "molecule": "O=[N+]([O-])c1ccc(O/N=C(\\CN2CCCC2)c2ccc(Cl)cc2)c([N+](=O)[O-])c1",
    "target.under.test": "CD2F1 mice, L1210 leukemia ip, survival T/C",
    "T/C": "87 % of control"
  },
  {
    "molecule": "Cc1cc(N2CCN(C)CC2)n2nc(-c3ccc(Cl)cc3)nc2n1",
    "target.under.test": "CD2F1 mice, L1210 leukemia ip, survival T/C",
    "T/C": "93 % of control"
  },
  {
    "molecule": "COC(=O)C(C)C1CCC2C3=CC=C4CC(OC(C)=O)CCC4(C)C3=CCC21C (stereo not drawn)",
    "target.under.test": "CD2F1 mice, L1210 leukemia ip, survival T/C",
    "T/C": "92 % of control"
  },
  {
    "molecule": "CC(=O)c1ccc(CCCCCCCC(=O)O)o1",
    "target.under.test": "CD2F1 mice, L1210 leukemia ip, survival T/C",
    "T/C": "94 % of control"
  }
]

For the molecule Nc1cccc(Oc2ccc([N+](=O)[O-])cc2)c1 , what T/C is on record? 97 % of control

Request the reported T/C associated with CCCCS(=O)(=O)C(c1ccccc1)c1ccccc1 96 % of control

Query (molecule): Cc1ccc(Nc2nc(N)nc(N)c2N=O)cc1C ; field requested: T/C 98 % of control

---

Tested on: CD2F1 mice, L1210 leukemia ip, survival T/C
Assay: NCI In Vivo Anticancer Drug Screen. Data for tumor model L1210 Leukemia (intraperitoneal) in CD2F1 (CDF1) mice
Settings: endpoint: mean survival time; dose: 400.0 mg/kg/injection; schedule: Q01DX009 (ip); vehicle: saline with Tween-80; higher = longer survival
Description: The antitumor activity of compounds was measured in mice bearing transplantable tumors. Survival or tumor size were measured and the results are expressed as the measurement made in the treated group (T) divided by the measurement made in the vehicle treated control group (C). The tumor model used in this assay is L1210 Leukemia (intraperitoneal) in CD2F1 (CDF1) mice
Inconclusive results and toxic doses are left out.
Quick reference for T/C among some molecules

Example entries and their recorded answers appear below.
[
  {
    "molecule": "O=C(CC(NC(=O)OCc1ccccc1)C(=O)OCc1ccccc1)OCc1ccccc1 (stereo not given)",
    "T/C": "97 % of control"
  },
  {
    "molecule": "O=C(c1ccccc1)C(c1ccccc1)C(SCc1ccccc1)c1ccccc1 (stereo not given)",
    "T/C": "103 % of control"
  },
  {
    "molecule": "CC(=O)OCC1(C)NC(=O)c2ccccc2O1 (stereo not given)",
    "T/C": "115 % of control"
  },
  {
    "molecule": "Cc1ccc(N=Nc2c(N)nc(N)[nH]c2=O)cc1C",
    "T/C": "99 % of control"
  },
  {
    "molecule": "O=C(N/N=C/c1ccc([N+](=O)[O-])o1)c1ccccc1N=Cc1ccc([N+](=O)[O-])o1",
    "T/C": "104 % of control"
  },
  {
    "molecule": "COC(=O)C(Br)C(OC)c1ccc(Cl)cc1 (stereo not given)",
    "T/C": "97 % of control"
  },
  {
    "molecule": "CCOC(=O)c1cnc(SCc2ccccc2)nc1N",
    "T/C": "96 % of control"
  },
  {
    "molecule": "C=CCOc1ccccc1C(C)=O",
    "T/C": "107 % of control"
  }
]

Which T/C is listed for CN(C)c1ccc(C=C(c2ccc(N)cc2)c2ccc(N)cc2)cc1 ? 94 % of control

Fill in: T/C of N#Cc1cnoc1N is ___ 109 % of control

Recorded T/C for CC(=O)Nc1ccc(/C=N/NC(=O)CNC(=O)Nc2ccc(Cl)c(Cl)c2)cc1 , please? 109 % of control

---

Measured T/C of individual entries
Test system: CD2F1 mice, L1210 leukemia ip, survival T/C
Assay: NCI In Vivo Anticancer Drug Screen. Data for tumor model L1210 Leukemia (intraperitoneal) in CD2F1 (CDF1) mice
Conditions: endpoint: mean survival time; dose: 25.0 mg/kg/injection; schedule: Q01DX009 (ip); vehicle: water; higher = longer survival
Inconclusive results and toxic doses are left out.

[
  {
    "compound": "Nc1cc(=S)c2nnn(C3OC(CO)C(O)C3O)c2[nH]1 (centres undefined)",
    "result": "100 % of control"
  }
]

T/C for CN(C)CCSc1cc(O)c2c(c1O)C(=O)c1ccccc1C2=O ? 95 % of control

GET /values?readout=T/C&item= CC(=O)OCC1CCN2CCCC12 (centres undefined) 96 % of control

Recorded T/C for CCCC1CC[N-]CC1.CCCC1CC[N-]CC1.[Br][Pt+2]([Br])([Br])[Br] , please? 97 % of control

---

Test system: CD2F1 mice, L1210 leukemia ip, survival T/C
Assay: NCI In Vivo Anticancer Drug Screen. Data for tumor model L1210 Leukemia (intraperitoneal) in CD2F1 (CDF1) mice
Conditions: endpoint: mean survival time; dose: 25.0 mg/kg/injection; schedule: Q01DX009 (ip); vehicle: saline; higher = longer survival
Toxic doses and inconclusive results are not listed.
recorded.metric: T/C

Take a look at these entries with their results.
[
  {
    "molecule": "CCCOP(=O)(N1CC1(C)C)N1CC1(C)C (centres undefined)",
    "result": "119 % of control"
  },
  {
    "molecule": "OCC1OC(n2cnc3c(Cl)ncnc32)C(O)C1O (centres undefined)",
    "result": "93 % of control"
  },
  {
    "molecule": "NC(COC(c1ccccc1)(c1ccccc1)c1ccccc1)C(=O)O (centres undefined)",
    "result": "103 % of control"
  }
]

We now examine a further molecule.
Recorded T/C of O=C(O)c1c(F)c(F)c(F)c(C(=O)O)c1F , please. 95 % of control

---

Entries and their T/C
Tested on: CD2F1 mice, L1210 leukemia ip, survival T/C
Assay: NCI In Vivo Anticancer Drug Screen. Data for tumor model L1210 Leukemia (intraperitoneal) in CD2F1 (CDF1) mice
Settings: endpoint: mean survival time; dose: 400.0 mg/kg/injection; schedule: Q01DX009 (ip); vehicle: saline with Tween-80; higher = longer survival
Inconclusive results and toxic doses are left out.

// solved cases for T/C follow
[
  {
    "compound": "COC(=O)C1C2CC(=O)C(C2)C1C(=O)OC (stereo unspecified)",
    "target.under.test": "CD2F1 mice, L1210 leukemia ip, survival T/C",
    "result": "93 % of control"
  },
  {
    "compound": "O=c1[nH]c(-c2ccccc2)nc(-c2ccc(Cl)cc2)c1CCO",
    "target.under.test": "CD2F1 mice, L1210 leukemia ip, survival T/C",
    "result": "96 % of control"
  },
  {
    "compound": "CCOC(=O)C1=C(C)NC(C)=C(C(=O)OCC)C1c1ccc(OC)cc1",
    "target.under.test": "CD2F1 mice, L1210 leukemia ip, survival T/C",
    "result": "97 % of control"
  },
  {
    "compound": "CCOC(=O)C(=CN1CCCCCC1)C(=O)OCC",
    "target.under.test": "CD2F1 mice, L1210 leukemia ip, survival T/C",
    "result": "94 % of control"
  },
  {
    "compound": "CC(=O)Oc1cccc(C#N)c1",
    "target.under.test": "CD2F1 mice, L1210 leukemia ip, survival T/C",
    "result": "96 % of control"
  }
]

We now examine a further compound.
Requested read-out: T/C. Entry: O=c1c(O)c(-c2ccc(O)c(O)c2)oc2cc(O)cc(O)c12 96 % of control
